Entries and their measured Activity follow.
# System: Psoroptes ovis
# method-summary: Acaricidal activity against Psoroptes cuniculi at 1 uL after 24 hrs by inhalation assay
# Assay type: functional
Reply numerically in %, unit not repeated.

Answered examples (10):
| compound | Activity, % |
| --- | --- |
| CC(C)=CCC/C(C)=C\CO | 36.7 |
| CC1=CCC(O)(C(C)C)CC1 (stereo unspecified) | 5 |
| C=CCc1ccc(O)c(OC)c1 | 86.7 |
| CC(C)=CCC/C(C)=C/CO | 95 |
| C=C(C)[C@H]1CC=C(C)CC1 | 0 |
| C=CC(C)(CCC=C(C)C)OC(C)=O (stereo unspecified) [LINALYL ACETATE] | 0 |
| C=CCc1ccc(OC)cc1 | 0 |
| C=CC(=C)CCC=C(C)C | 0 |
| CC1=CCC(C(C)C)=CC1 | 0 |
| C=CC(C)(O)CCC=C(C)C (stereo unspecified) | 36.7 |

Consider the compound CC1=CC[C@@H](C(C)(C)O)CC1 . State its measured Activity.
73.3

----------
# Tested on: Psoroptes ovis
# method-summary: Acaricidal activity against Psoroptes cuniculi at 0.25% dilution in physiological saline after 48 hrs by direct contact assay
# Type: functional
Entries and their measured Activity follow.
Reply numerically in %, unit not repeated.

Answered examples (10):
| compound | unit-string | Activity |
| --- | --- | --- |
| C=CCc1ccc(O)c(OC)c1 | % | 100 |
| C=CC(C)(O)CCC=C(C)C (stereo not drawn) | % | 100 |
| CC1=CCC(O)(C(C)C)CC1 (stereo not drawn) | % | 100 |
| CC1=CCC(C(C)C)=CC1 | % | 0 |
| CC(C)=CCC/C(C)=C\CO | % | 98.3 |
| C=CC(=C)CCC=C(C)C | % | 0 |
| CC(C)=CCC/C(C)=C/CO | % | 100 |
| CC1CCC(C(C)C)C(O)C1 (stereo not drawn) | % | 100 |
| Cc1ccc(C(C)C)c(O)c1 | % | 100 |
| C=C(C)[C@H]1CC=C(C)CC1 | % | 0 |

Write Activity of CC1=CC[C@@H](C(C)(C)O)CC1 ; system used: Psoroptes ovis
100

Write Activity of C=CC(C)(CCC=C(C)C)OC(C)=O (stereo not drawn) [LINALYL ACETATE] ; system used: Psoroptes ovis
35

Write Activity of C=CCc1ccc(OC)cc1 ; system used: Psoroptes ovis
63.3
